method.notes: Cytotoxicity against human L02 cells assessed as cell viability at 6.25 uM measured after 72 hrs by MTT assay relative to control
Assay type: cell-based
protocol.conditions: read-out: Activity
What viability at 72 h, 6.25 µM was measured for each of the following?
Quick reminder: number only, in %, skip the unit.

Query :: Any idea what its viability at 72 h, 6.25 µM is? The compound is CCN(C)C(=O)Oc1ccc(-c2cc(=O)c3c(OC(=O)N(C)CC)cc(OC(=O)N(C)CC)cc3o2)cc1
Result :: 98

Query :: Okay, and CCN(C)C(=O)Oc1ccc(-c2cc(=O)c3c(O)cc(OC(=O)N(C)CC)cc3o2)cc1 ?
Result :: 99

====

experimental.target: Amyloid-beta precursor protein (Homo sapiens)
method.notes: Inhibition of self-induced amyloid beta (1 to 42) (unknown origin) aggregation at 25 uM by ThT fluorescence assay relative to control
property.name: inhibition

Query :: Observed inhibition on Amyloid-beta precursor protein (Homo sapiens) for O=C(Oc1ccc(-c2cc(=O)c3c(O)cc(OC(=O)N4CCOCC4)cc3o2)cc1)N1CCOCC1 , please.
Result :: 71.5%

Query :: Okay, and CCN(C)C(=O)Oc1ccc(-c2cc(=O)c3c(OC(=O)N(C)CC)cc(OC(=O)N(C)CC)cc3o2)cc1 ?
Result :: 35.1%

Query :: Okay, and CCN(C)C(=O)Oc1ccc(-c2cc(=O)c3c(O)cc(OC(=O)N(C)CC)cc3o2)cc1 ?
Result :: 77.9%

Query :: Okay, and CON(C)C(=O)Oc1ccc(-c2cc(=O)c3c(O)cc(OC(=O)N(C)OC)cc3o2)cc1 ?
Result :: 76.8%

Query :: Okay, and CN(C)C(=O)Oc1ccc(-c2cc(=O)c3c(OC(=O)N(C)C)cc(OC(=O)N(C)C)cc3o2)cc1 ?
Result :: 38.3%

Query :: Okay, and CON(C)C(=O)Oc1ccc(-c2cc(=O)c3c(OC(=O)N(C)OC)cc(OC(=O)N(C)OC)cc3o2)cc1 ?
Result :: 36%

Query :: Okay, and CCN(CC)C(=O)Oc1ccc(-c2cc(=O)c3c(O)cc(OC(=O)N(CC)CC)cc3o2)cc1 ?
Result :: 77.8%

Query :: Okay, and O=C(Oc1ccc(-c2cc(=O)c3c(O)cc(OC(=O)N4CCCC4)cc3o2)cc1)N1CCCC1 ?
Result :: 73.7%

====

Acetylcholinesterase (Homo sapiens, UniProt P22303) measurements of pIC50, listed per entry.
Sequence (P22303 whole entry): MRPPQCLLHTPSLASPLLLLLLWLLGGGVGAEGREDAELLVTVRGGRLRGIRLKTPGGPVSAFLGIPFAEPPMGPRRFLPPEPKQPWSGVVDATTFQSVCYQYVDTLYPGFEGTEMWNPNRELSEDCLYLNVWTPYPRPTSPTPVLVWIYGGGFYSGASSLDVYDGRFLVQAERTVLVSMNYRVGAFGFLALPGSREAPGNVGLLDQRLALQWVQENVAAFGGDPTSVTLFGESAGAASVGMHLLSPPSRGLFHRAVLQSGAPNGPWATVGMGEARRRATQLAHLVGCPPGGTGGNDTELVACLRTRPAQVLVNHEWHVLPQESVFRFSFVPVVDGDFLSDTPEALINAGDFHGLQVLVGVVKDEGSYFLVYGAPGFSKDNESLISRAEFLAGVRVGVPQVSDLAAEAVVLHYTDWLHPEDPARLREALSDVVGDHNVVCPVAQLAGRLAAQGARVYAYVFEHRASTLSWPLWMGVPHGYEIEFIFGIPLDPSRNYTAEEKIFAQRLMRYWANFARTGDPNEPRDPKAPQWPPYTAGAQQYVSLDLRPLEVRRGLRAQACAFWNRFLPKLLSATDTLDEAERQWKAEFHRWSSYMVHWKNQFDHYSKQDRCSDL
# pIC50: negative log10 of molar concentration; output just the value

Query :: Any idea what its pIC50 is? The compound is CON(C)C(=O)Oc1ccc(-c2cc(=O)c3c(OC(=O)N(C)OC)cc(OC(=O)N(C)OC)cc3o2)cc1
Result :: 4.90

Query :: Okay, and CCN(C)C(=O)Oc1ccc(-c2cc(=O)c3c(O)cc(OC(=O)N(C)CC)cc3o2)cc1 ?
Result :: 5.17

Query :: Okay, and CCN(C)C(=O)Oc1ccc(-c2cc(=O)c3c(OC(=O)N(C)CC)cc(OC(=O)N(C)CC)cc3o2)cc1 ?
Result :: 5.04

Query :: Okay, and CON(C)C(=O)Oc1ccc(-c2cc(=O)c3c(O)cc(OC(=O)N(C)OC)cc3o2)cc1 ?
Result :: 4.99

====

What viability at 72 h, 25 µM was measured for each of the following?
method.notes: Cytotoxicity against human L02 cells assessed as cell viability at 25 uM measured after 72 hrs by MTT assay relative to control
Assay type: cell-based
protocol.conditions: read-out: Activity

Query :: Any idea what its viability at 72 h, 25 µM is? The compound is CCN(C)C(=O)Oc1ccc(-c2cc(=O)c3c(OC(=O)N(C)CC)cc(OC(=O)N(C)CC)cc3o2)cc1
Result :: 89.8%

Query :: Okay, and CCN(C)C(=O)Oc1ccc(-c2cc(=O)c3c(O)cc(OC(=O)N(C)CC)cc3o2)cc1 ?
Result :: 83.9%

====

experimental.target: Cholinesterase (Homo sapiens, UniProt P06276)
Sequence (P06276 whole entry): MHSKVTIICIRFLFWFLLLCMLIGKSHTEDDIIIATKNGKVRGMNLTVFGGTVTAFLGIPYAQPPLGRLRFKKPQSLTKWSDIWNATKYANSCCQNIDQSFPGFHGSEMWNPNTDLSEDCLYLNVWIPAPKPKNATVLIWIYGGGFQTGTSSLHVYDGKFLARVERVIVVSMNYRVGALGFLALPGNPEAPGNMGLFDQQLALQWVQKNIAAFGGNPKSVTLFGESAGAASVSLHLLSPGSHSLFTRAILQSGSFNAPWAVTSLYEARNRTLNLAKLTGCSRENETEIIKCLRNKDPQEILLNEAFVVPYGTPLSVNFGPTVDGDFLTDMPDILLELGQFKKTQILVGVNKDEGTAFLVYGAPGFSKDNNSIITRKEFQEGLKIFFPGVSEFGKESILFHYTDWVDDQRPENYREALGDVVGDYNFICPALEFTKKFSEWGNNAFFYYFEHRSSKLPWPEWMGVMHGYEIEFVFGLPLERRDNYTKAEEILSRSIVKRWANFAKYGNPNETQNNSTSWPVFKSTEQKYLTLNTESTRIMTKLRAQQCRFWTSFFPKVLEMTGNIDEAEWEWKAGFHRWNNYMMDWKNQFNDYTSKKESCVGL
method.notes: Inhibition of human serum BChE using acetylthiocholine iodide as substrate measured after 15 mins by Ellman's method
What IC50 was measured for each of the following?
Quick reminder: number only, in µM, skip the unit.

Query :: Any idea what its IC50 is? The compound is CCN(C)C(=O)Oc1ccc(-c2cc(=O)c3c(O)cc(OC(=O)N(C)CC)cc3o2)cc1
Result :: 16.1

Query :: Okay, and CON(C)C(=O)Oc1ccc(-c2cc(=O)c3c(OC(=O)N(C)OC)cc(OC(=O)N(C)OC)cc3o2)cc1 ?
Result :: 24.3

Query :: Okay, and CON(C)C(=O)Oc1ccc(-c2cc(=O)c3c(O)cc(OC(=O)N(C)OC)cc3o2)cc1 ?
Result :: 22.6

Query :: Okay, and CCN(C)C(=O)Oc1ccc(-c2cc(=O)c3c(OC(=O)N(C)CC)cc(OC(=O)N(C)CC)cc3o2)cc1 ?
Result :: 19.5

====

What IC50 was measured for each of the following?
experimental.target: Acetylcholinesterase (Rattus norvegicus, UniProt P37136)
Sequence (P37136 whole entry): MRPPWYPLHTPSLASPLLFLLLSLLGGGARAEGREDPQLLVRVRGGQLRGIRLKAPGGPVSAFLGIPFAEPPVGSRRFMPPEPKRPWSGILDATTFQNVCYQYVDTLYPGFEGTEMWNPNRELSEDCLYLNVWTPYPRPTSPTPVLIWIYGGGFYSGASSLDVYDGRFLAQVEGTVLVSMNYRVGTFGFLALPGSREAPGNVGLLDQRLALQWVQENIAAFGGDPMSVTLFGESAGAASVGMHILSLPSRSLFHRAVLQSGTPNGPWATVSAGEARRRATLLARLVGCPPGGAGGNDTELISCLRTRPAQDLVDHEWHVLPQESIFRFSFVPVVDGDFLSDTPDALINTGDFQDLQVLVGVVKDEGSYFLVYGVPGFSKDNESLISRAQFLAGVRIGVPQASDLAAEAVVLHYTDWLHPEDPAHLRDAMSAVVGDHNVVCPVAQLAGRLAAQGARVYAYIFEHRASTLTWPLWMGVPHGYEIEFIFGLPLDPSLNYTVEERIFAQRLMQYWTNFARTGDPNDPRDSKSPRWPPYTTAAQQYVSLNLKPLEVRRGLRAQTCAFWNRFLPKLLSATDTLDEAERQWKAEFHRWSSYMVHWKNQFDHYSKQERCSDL
Quick reminder: number only, in µM, skip the unit.

Query :: Observed IC50 on Acetylcholinesterase (Rattus norvegicus, UniProt P37136) for CON(C)C(=O)Oc1ccc(-c2cc(=O)c3c(OC(=O)N(C)OC)cc(OC(=O)N(C)OC)cc3o2)cc1 , please.
Result :: 6

Query :: Okay, and CON(C)C(=O)Oc1ccc(-c2cc(=O)c3c(O)cc(OC(=O)N(C)OC)cc3o2)cc1 ?
Result :: 6.8

Query :: Okay, and CN(C)C(=O)Oc1ccc(-c2cc(=O)c3c(OC(=O)N(C)C)cc(OC(=O)N(C)C)cc3o2)cc1 ?
Result :: 8.3

Query :: Okay, and CCN(C)C(=O)Oc1ccc(-c2cc(=O)c3c(OC(=O)N(C)CC)cc(OC(=O)N(C)CC)cc3o2)cc1 ?
Result :: 5.1

Query :: Okay, and O=C(Oc1ccc(-c2cc(=O)c3c(O)cc(OC(=O)N4CCCC4)cc3o2)cc1)N1CCCC1 ?
Result :: 13.7

Query :: Okay, and O=C(Oc1ccc(-c2cc(=O)c3c(OC(=O)N4CCOCC4)cc(OC(=O)N4CCOCC4)cc3o2)cc1)N1CCOCC1 ?
Result :: 10.2

Query :: Okay, and CN(C)C(=O)Oc1ccc(-c2cc(=O)c3c(O)cc(OC(=O)N(C)C)cc3o2)cc1 ?
Result :: 9.2

Query :: Okay, and CCN(C)C(=O)Oc1ccc(-c2cc(=O)c3c(O)cc(OC(=O)N(C)CC)cc3o2)cc1 ?
Result :: 4.7

Query :: Okay, and CCN(CC)C(=O)Oc1ccc(-c2cc(=O)c3c(O)cc(OC(=O)N(CC)CC)cc3o2)cc1 ?
Result :: 7.8

Query :: Okay, and O=C(Oc1ccc(-c2cc(=O)c3c(O)cc(OC(=O)N(c4ccccc4)c4ccccc4)cc3o2)cc1)N(c1ccccc1)c1ccccc1 ?
Result :: 31.9

Query :: Okay, and O=C(Oc1ccc(-c2cc(=O)c3c(O)cc(OC(=O)N4CCOCC4)cc3o2)cc1)N1CCOCC1 ?
Result :: 11.5

====

method.notes: Acute toxicity in 2 dpf zebrafish assessed as maximum non-lethal concentration measured after 3 days
Design: species or system Danio rerio
protocol.conditions: in vivo, time 3 day
property.name: MNTC at 72 h (µg/mL)
Quick reminder: number only, in µg/mL, skip the unit.

Query :: Any idea what its MNTC at 72 h is? The compound is CCN(C)C(=O)Oc1ccc(-c2cc(=O)c3c(O)cc(OC(=O)N(C)CC)cc3o2)cc1
Result :: 12.5
